target: T1, ErbB4 PY3 motif (Homo sapiens, UniProt Q15303)
T1 chain: KPGTVLPPPPYRHRNTVV
pKd: −log10 of the molar value.
result-type: pKd

Quick check: pKd of DSEDELPPGWEERTTKDGWVYYANHTEEKTQWEHPKTGKR [WWOX WW1] ?
~4.00
